- Test system: HEK293FT dCK*-IKZF1
- experiment description: relative growth recovery (pomalidomide 10 uM = 100%, DMSO = 0%); higher = more growth rescue (IKZF1 fusion degradation)
- settings: compound concentration: 5 uM; AraC concentration: 0.3 uM; overnight pretreatment + 4 days AraC
Counter-ions that a name gives are not always drawn.
Below, each of the molecules is paired with its reported relative growth recovery value.
reported endpoint: relative growth recovery (%)

INSERT INTO measurements (molecule, recorded_measurement) VALUES
  ('Cc1nc(-c2cccnc2)sc1C(=O)Nc1ccccc1-c1cn2c(CN3CCOCC3)csc2n1', -0.27),
  ('COC(=O)Nc1nc2cc(SC(C)C)ccc2[nH]1 [methiazole]', -10.8),
  ('CCOC(=O)C1=C(C)NC(C)=C(C(=O)OC)C1c1cccc(Cl)c1Cl (configuration not stated)', -1.19),
  ('O=C1Nc2ccc(Cl)cc2[C@@](C#CC2CC2)(C(F)(F)F)O1 [Efavirenz]', 2.08),
  ('OCCN1CCN(CCCN2c3ccccc3Sc3ccc(Cl)cc32)CC1 [Perphenazine]', 2.98),
  ('COc1cc(C(=O)NS(=O)(=O)c2ccccc2C)ccc1Cc1cn(C)c2ccc(NC(=O)OC3CCCC3)cc12 [Zafirlukast (Accolate)]', 0.805),
  ('CN[C@H]1CC[C@@H](c2ccc(Cl)c(Cl)c2)c2ccccc21 [Sertraline HCl]', -6.62),
  ('CC(C)(C)C1=CC=C(CN(C)[C@H](C(N[C@H]([C@](NC(C)(C)C)=O)CC2=CC=C(OCC3=CC=CC=C3)C=C2)=O)CC(C)C)C=C1', -2.38),
  ('Clc1ccc2c(N3CCN(CCCN4CCN(c5ccnc6cc(Cl)ccc56)CC4)CC3)ccnc2c1', -1.17),
  ('O=C1N(c2ccccc2)c2ccccc2C1(Cc1ccncc1)Cc1ccncc1 [linopirdine]', -3.48),
  ('Cc1c(S(=O)(=O)O)oc2c1C(=O)C(=O)c1c-2ccc2c1CCCC2(C)C [sodium-tanshinone-ii-a-sulfonate]', -1.25),
  ('Cc1ccccc1/N=N/c1ccc(NC(=O)c2ccnn2C)c(C)c1', -0.005),
  ('O=C(CCCCCCC(O)=NO)Nc1ccccc1 [Vorinostat]', -10.3),
  ('CN(Cc1cnc2nc(N)nc(N)c2n1)c1ccc(C(=O)NC(CCC(=O)O)C(=O)O)cc1 (configuration not stated) [Methotrexate]', -9.97),
  ('O=c1c(O)c(-c2ccc(O)c(O)c2)oc2cc(O)cc(O)c12 [quercetin]', -2.98),
  ('CCc1c2c(nc3ccc(OC(=O)N4CCC(N5CCCCC5)CC4)cc13)-c1cc3c(c(=O)n1C2)COC(=O)[C@]3(O)CC [Irinotecan HCl]', -15.1),
  ('O=C(Nc1cc(C(F)(F)F)ccc1O)Nc1cc(C(F)(F)F)ccc1O', -1.77),
  ('COc1cc(N2CCN(CCOCCOCCNC(=O)CNc3cccc4c3C(=O)N(C3CCC(=O)NC3=O)C4=O)CC2)ccc1Nc1ncc(Cl)c(Nc2ccccc2S(=O)(=O)C(C)C)n1 (configuration not stated)', -4.32),
  ('Oc1ccc(Cl)c2cccnc12', -1.79),
  ('COc1cc([C@@H]2c3cc4c(cc3[C@@H](O[C@@H]3O[C@@H]5CO[C@@H](C)O[C@H]5[C@H](O)[C@H]3O)[C@H]3COC(=O)[C@H]23)OCO4)cc(OC)c1O [Etoposide]', -12.5),
  ('Cc1cc(C2CCCCC2)n(O)c(=O)c1', -10.6),
  ('O=C(O)c1cc(/N=N/c2ccc(O)c(C(=O)O)c2)ccc1O', 3.38),
  ('CCCCCCCC/C=C\CCCCCCCC(=O)NCCO [oleoylethanolamide]', 1.78),
  ('Oc1cc(O)cc(/C=C/c2ccc(O)c(O)c2)c1 [piceatannol]', -2.98),
  ('C1CCC(C(CC2CCCCN2)C2CCCCC2)CC1 (configuration not stated)', -2.33),
  ('Clc1ccc(COC(Cn2ccnc2)c2ccc(Cl)cc2Cl)c(Cl)c1 (configuration not stated)', -6.23),
  ('[2H]C([2H])([2H])C(O)(CCO[C@@H](C)[C@H]1CC[C@H]2/C(=C/C=C3/C[C@@H](O)C[C@H](O)C3=C)CCC[C@]12C)C([2H])([2H])[2H] [maxacalcitol]', 7.53),
  ('O=c1oc(-c2ccc(C(F)(F)F)cc2)nn1Cc1cc(Cl)ccc1O', -5.1),
  ('CC[C@@]1(O)C(=O)OCc2c1cc1n(c2=O)Cc2cc3c(CN(C)C)c(O)ccc3nc2-1 [Topotecan HCl]', -13.3),
  ('CO[C@H]1/C=C/O[C@@]2(C)Oc3c(C)c(O)c4c(O)c(c5c(c4c3C2=O)=NC2(CCN(CC(C)C)CC2)N=5)NC(=O)C(C)=CC=CC(C)[C@H](O)[C@@H](C)[C@@H](O)[C@@H](C)[C@H](OC(C)=O)[C@@H]1C (some centres not stated) [Rifabutin]', -0.05),
  ('Cc1cccc(Nc2nc(-c3ccncc3)cs2)c1', -0.535),
  ('CO/N=C1\C[C@]2(C[C@@H]3C[C@@H](C/C=C(\C)C[C@@H](C)/C=C/C=C4\CO[C@@H]5[C@H](O)C(C)=C[C@@H](C(=O)O3)[C@]45O)O2)O[C@H](/C(C)=C/C(C)C)[C@H]1C', -1.09);
